- procedure_details: Kinetics of oxidation of the dihydro derivatives in whole blood
- Format: in vitro ADME, human
- condition_info: human, 37°C, unit inferred
- Experimental: In Whole Blood: In each of 5 tubes, 0.1 ml of 10 x 10-^4 M methanolic solution of the freshly prepared dihydro derivative, was added 2 ml of fresh heparinized whole human blood and the tubes were kept at 37°C in a water bath. At the end of the time period to be investigated, 8 ml of acetonitrile was added, shaken vigorously and centrifuged. The extension of the supernatant solution at 350 nm was measured. […]

given_smiles: CN1C=C(C(=O)NCCc2ccccc2)CC(C(=O)NCCc2ccccc2)=C1
half-life / h: 3.9
